# collection of IC50 values tested on Somatostatin receptor type 1 (Homo sapiens, UniProt P30872)
# Sequence (P30872 whole entry): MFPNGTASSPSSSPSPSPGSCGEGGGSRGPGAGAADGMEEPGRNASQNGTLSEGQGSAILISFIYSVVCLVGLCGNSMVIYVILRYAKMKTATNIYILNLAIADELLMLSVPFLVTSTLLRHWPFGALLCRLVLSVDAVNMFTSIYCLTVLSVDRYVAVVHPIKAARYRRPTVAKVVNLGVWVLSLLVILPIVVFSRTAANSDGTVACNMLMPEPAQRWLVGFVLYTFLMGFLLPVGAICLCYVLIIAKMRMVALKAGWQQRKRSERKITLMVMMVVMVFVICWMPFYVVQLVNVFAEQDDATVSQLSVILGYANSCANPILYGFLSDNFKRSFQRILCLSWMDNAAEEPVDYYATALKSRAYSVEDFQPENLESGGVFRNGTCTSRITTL
Positions of bridges follow the written chain, without caps; N, C: chain ends. Non-standard residues stand in square brackets, D forms with d. Residues, ends and D or L forms follow the SMILES beside them. NMePhe(4-CH2NHiPr) = CN[C@@H](Cc1ccc(CNC(C)C)cc1)C(=O)O; Phe(4-CH2NHiPr) = CC(C)NCc1ccc(C[C@H](N)C(=O)O)cc1; d2Nal = N[C@H](Cc1ccc2ccccc2c1)C(=O)O; NMeS = CN[C@@H](CO)C(=O)O
A number alone suffices; assume nM.

[[record]]
compound = "CC(C)NCc1ccc(C[C@H]2C(=O)N[C@@H]([C@@H](C)O)C(=O)N[C@@H](Cc3ccc(O)cc3)C(=O)N[C@@H]([C@@H](C)O)C(=O)N[C@@H](CO)C(=O)N[C@H](C(=O)O)CSSC[C@H](N)C(=O)N[C@@H](CCCCN)C(=O)N[C@@H](Cc3ccccc3)C(=O)N[C@@H](Cc3ccccc3)C(=O)N[C@H](Cc3ccc4ccccc4c3)C(=O)N2C)cc1 (H-CKFF[d2Nal][NMePhe(4-CH2NHiPr)]TYTSC-OH; disulfide 1-11)"
u = "nM"
result = 25

[[record]]
compound = "CC(C)NCc1ccc(C[C@@H]2NC(=O)[C@@H](Cc3c[nH]c4ccccc34)NC(=O)[C@H](Cc3ccccc3)NC(=O)[C@H](Cc3ccccc3)NC(=O)[C@H](CCCCN)NC(=O)[C@@H](N)CSSC[C@@H](C(=O)O)NC(=O)[C@H](CO)N(C)C(=O)[C@H]([C@@H](C)O)NC(=O)[C@H](Cc3ccccc3)NC(=O)[C@H]([C@@H](C)O)NC2=O)cc1 (H-CKFF[dW][Phe(4-CH2NHiPr)]TFT[NMeS]C-OH; disulfide 1-11)"
u = "nM"
result = 23

[[record]]
compound = "CN[C@H]1CSSC[C@@H](C(=O)O)NC(=O)[C@H](CO)NC(=O)[C@H]([C@@H](C)O)NC(=O)[C@H](Cc2ccccc2)NC(=O)[C@H]([C@@H](C)O)NC(=O)[C@H](Cc2ccc(CNC(C)C)cc2)NC(=O)[C@@H](Cc2ccc3ccccc3c2)NC(=O)[C@H](Cc2ccccc2)NC(=O)[C@H](Cc2ccccc2)NC(=O)[C@H](CCCCN)NC1=O"
u = "nM"
result = 113


Query string: Fetch value of IC50 on Somatostatin receptor type 1 (Homo sapiens, UniProt P30872) for CC(C)NCc1ccc(C[C@H]2C(=O)N[C@@H]([C@@H](C)O)C(=O)N[C@@H](Cc3ccccc3)C(=O)N[C@@H]([C@@H](C)O)C(=O)N[C@@H](CO)C(=O)N[C@H](C(=O)O)CSSC[C@H](N)C(=O)N[C@@H](CCCCN)C(=O)N[C@@H](Cc3ccccc3)C(=O)N[C@@H](Cc3ccccc3)C(=O)N[C@H](Cc3c[nH]c4ccccc34)C(=O)N2C)cc1 (H-CKFF[dW][NMePhe(4-CH2NHiPr)]TFTSC-OH; disulfide 1-11) .
Result string: 10

Query string: Fetch value of IC50 on Somatostatin receptor type 1 (Homo sapiens, UniProt P30872) for `CC(C)NCc1ccc(C[C@@H]2NC(=O)[C@@H](Cc3c[nH]c4ccccc34)NC(=O)[C@H](Cc3ccccc3)NC(=O)[C@H](Cc3ccccc3)NC(=O)[C@H](CCCCN)NC(=O)[C@@H](N)CSSC[C@@H](C(=O)N[C@@H](CCCCN)C(=O)N[C@@H](CCCCN)C(=O)N[C@@H](CCCCN)C(=O)O)N(C)C(=O)[C@H](CO)NC(=O)[C@H]([C@@H](C)O)NC(=O)[C@H](Cc3ccccc3)NC(=O)[C@H]([C@@H](C)O)NC2=O)cc1` .
Result string: 30

Cited source: ChEMBL document CHEMBL1145176
